- Subject of test: T1, dimeric human LTBR-Fc biotinylated (P1AE2401) (human, UniProt P36941 31-227, biotinylated in vitro)
- T1 construct: bought from R&D Systems (7538-LR); also called human LTBR ECD; not shown: human IgG1 Fc-Fragment
- Protocol text: competition ELISA vs lymphotoxin α1β2 (P1AE1235)
Endpoint: rel. fit top (OD)
Answers are plain numbers, in OD.

Binder	Numeric value
P1AF0080 (antibody, human IgG1, kappa, L234A L235A, V domains shown, human IgG1 PG LALA; from transgenic rabbit immunization; also called LTBR (0080)) VH: EVQLLESGGGLVQPGGSLRLSCAASGFTFSYYAMTWVRQAPGKGLEWIGVINSGGGTYYTDSVKGRFTMSRDNSKNTLYLQVNSLRAEDTAVYYCAKASTADVWGQGTTVTVSS VL: DIQMTQSPSSLSASVGDRVTITCQASQGISNYLSWYQQKPGKAPKRLIFAASSLESGVPSRFSGSGSGTDFTLTISSLQPEDFATYYCQQYNSYSLTFGGGTKLEIKR	2.56
P1AF0064 (antibody, human IgG1, kappa, L234A L235A, V domains shown, human IgG1 PG LALA constant regions; V domains from rat immunization; also called LTBR (0064)) VH: EVQLQQYGAELGKPGTSVKLSCKVSGYNIGNTYIHWVIQRPGKGLEWIGRIDPTNGNTICTEKFKNKATLTADLSSNTAYMQLSQLKSDDTAIYFCAPTTLTTPDSFAYWGQGTLVTVSS VL: DIQMTQSPSQLSASVGDRVTLSCKASQNIYKYLNWYQQKLGEAPRLLIYSTNILQTGIPSRFSGSGSGTDYTLTISSLQPEDAATYFCQKYYSGFTFGSGTKLEMKR	1.7
P1AE9459 (antibody, human IgG1, kappa, L234A L235A, V domains shown, human IgG1 PG LALA; from transgenic rabbit immunization) VH: EVQLVESGGGLVQPGGSLRLSCAASGFTFSSYTMNWVRQAPGKGLEWVSGVAPSGDRTYYTDSVKGRFTISRDNAKNTLDLQMTSLRAEDAAIYICAQGFAFTNWGQGTMVTVSS VL: DIQMTQSPSSLSASVGDRVTITCRASQGISSALAWFQQKPGKAPKRLIFDASSLDSGVPSRFSGSGSGTDFTLTISSLQPEDFATYYCQQYNNYPLTFGGGTKVEMKR	1.5

Now consider a different binder.
query: Tell me rel. fit top (OD) reported for P1AE9452 (antibody, human IgG1, kappa, L234A L235A, V domains shown, human IgG1 PG LALA; from transgenic rabbit immunization; also called LTBR (9452)) VH: EVQLLESGGGLVQPGGSLRLSCAAAGFTFSSYPMTWVRQAPGKGLEWVSLISPSGATTYYADSVKGRFTISRDTSKNTLYLQMNSLRAEDTAVYYCAKNHYPDDVIIKNYYFYGVDVWGQGTTVTVSS VL: DIQMTQSPSSLSASVGDRVTITCRASQDISNYLNWYQQKPGKAPKSLIYAASSLQSGVPSRFSGSGSGTDFTLTISSLQPEDFANYYCQQTHTIPYSFGQGTNLEIKR
result: 1.4

Just for reference, patent US20250034269A1 is where these values come from.
